Experiment: Inhibition of Hsp70 (unknown origin)
Parameters: species or system Homo sapiens
experimental_endpoint: IC50

IC50 for `CCn1c(=O)/c(=C2\Sc3ccccc3N2C)s/c1=C\c1cccc[n+]1CC` is 6.4 µM
